Recorded values, source patent US11873287B2.

Kindly state Daily Body Weight of Tested Female Mice (Mean ± SD) for each of the entries shown.
# Test system: ICR mice
# ASSAY NAME: Acute toxicity experiment of single oral administration in mice
# Assay type: in vivo
# SETUP CONDITIONS: Day 2; female; 1000 mg/Kg single oral dose
Use g as the unit, but write only the number.

### Prompt So what does the record say about Daily Body Weight of Tested Female Mice (Mean ± SD) for COCCN1C(=O)CCC(N2C(=O)c3cccc(C)c3C2=O)C1=O (stereo not drawn) ?
### Response 22.4

### Prompt # query: Daily Body Weight of Tested Female Mice (Mean ± SD) of entry COCCN1C(=O)CCC(N2C(=O)c3c(N)ccc(O)c3C2=O)C1=O (stereo not drawn)
### Response 21.9

### Prompt Sample COCCN1C(=O)CCC(N2C(=O)c3cccc(O)c3C2=O)C1=O (stereo not drawn) — what was its Daily Body Weight of Tested Female Mice (Mean ± SD)?
### Response 22.4

### Prompt Recorded Daily Body Weight of Tested Female Mice (Mean ± SD) for COCCCN1C(=O)CCC(N2C(=O)c3ccc(N)cc3C2=O)C1=O (stereo not drawn) , please?
### Response 22.5

### Prompt Find the recorded Daily Body Weight of Tested Female Mice (Mean ± SD) belonging to CSCCN1C(=O)CCC(N2C(=O)c3cccc(N)c3C2=O)C1=O (stereo not drawn) and report it.
### Response 21.7

### Prompt What does the record list as Daily Body Weight of Tested Female Mice (Mean ± SD) for CNc1cccc2c1C(=O)N(C1CCC(=O)N(CCOC)C1=O)C2=O (stereo not drawn) ?
### Response 22.7

### Prompt Given the compound C[S+]([O-])CCN1C(=O)CCC(N2C(=O)c3cccc(N)c3C2=O)C1=O (stereo not drawn) , what is its reported Daily Body Weight of Tested Female Mice (Mean ± SD)?
### Response 21.8

### Prompt Suppose we examine the compound CCOCCN1C(=O)CCC(N2C(=O)c3cccc(N)c3C2=O)C1=O (stereo not drawn) ; what Daily Body Weight of Tested Female Mice (Mean ± SD) value has been reported?
### Response 20.7

### Prompt Need Daily Body Weight of Tested Female Mice (Mean ± SD) of COCCCCN1C(=O)CCC(N2C(=O)c3cccc(N)c3C2=O)C1=O (stereo not drawn) , thanks.
### Response 21.8

###

For each of the molecules below, state its Weights of Experimental Mice (Mean ± SD).
# Test system: DSS-Induced inflammatory Bowel Disease Models in Mice
# ASSAY NAME: DSS-induced inflammatory bowel disease model in mice (Biological Example 4, 1.3% DSS)
# Assay type: in vivo, C57BL/6 mice
# SETUP CONDITIONS: Day 9; 30 mg/Kg i.g. Q.D
# Procedure: 40 healthy female C57BL/6 mice having weight of 16-19 g were randomly divided into 4 groups in accordance with weight. There were 10 mice in each group (see Table 6 below). The first day of the experiment was recorded as Day 0. The administration regimen and induction regimen were detailed in Table 6. The change in weight of experimental animals was recorded every day. […] Samples of animal colonic tissues were obtained to measure the length. […]
Kindly provide the numeric value in g only, without the unit symbol.

### Prompt Sample COCCCN1C(=O)CCC(N2C(=O)c3cccc(NC(C)=O)c3C2=O)C1=O (stereo not shown) — what was its Weights of Experimental Mice (Mean ± SD)?
### Response 18.9

### Prompt Reported Weights of Experimental Mice (Mean ± SD) for Nc1cccc2c1C(=O)N(C1CCC(=O)N(CCO)C1=O)C2=O (stereo not shown) : what is it?
### Response 19.6

### Prompt Consider the molecule shown here: CNc1cccc2c1C(=O)N(C1CCC(=O)N(CCOC)C1=O)C2=O (stereo not shown) What is its recorded Weights of Experimental Mice (Mean ± SD)?
### Response 19.0

### Prompt Consider the molecule shown here: CCOCCN1C(=O)CCC(N2C(=O)c3cccc(N)c3C2=O)C1=O (stereo not shown) What is its recorded Weights of Experimental Mice (Mean ± SD)?
### Response 19.4

###

Assignment: determine reported Weights of Experimental Mice (Mean ± SD) for the given compounds.
# Test system: DSS-Induced inflammatory Bowel Disease Models in Mice
# ASSAY NAME: DSS-induced inflammatory bowel disease model in mice (Biological Example 4, 1.3% DSS)
# Format: in vivo, C57BL/6 mice
# SETUP CONDITIONS: Day 5; 30 mg/Kg i.g. Q.D
Lab book: enter the figure in g, no units written.

### Prompt Short answer please: Weights of Experimental Mice (Mean ± SD), DSS-Induced inflammatory Bowel Disease Models in Mice, entry Nc1cccc2c1C(=O)N(C1CCC(=O)N(CCO)C1=O)C2=O (stereo not shown)
### Response 19.9

### Prompt Given the entry CCOCCN1C(=O)CCC(N2C(=O)c3cccc(N)c3C2=O)C1=O (stereo not shown) , what Weights of Experimental Mice (Mean ± SD) was observed with DSS-Induced inflammatory Bowel Disease Models in Mice?
### Response 19.7

### Prompt Please state recorded Weights of Experimental Mice (Mean ± SD) (tested on DSS-Induced inflammatory Bowel Disease Models in Mice) of COCCCN1C(=O)CCC(N2C(=O)c3cccc(NC(C)=O)c3C2=O)C1=O (stereo not shown)
### Response 19.6

### Prompt Form: Entry = CNc1cccc2c1C(=O)N(C1CCC(=O)N(CCOC)C1=O)C2=O (stereo not shown) | System = DSS-Induced inflammatory Bowel Disease Models in Mice | Weights of Experimental Mice (Mean ± SD) = ____
### Response 20.0

###

# Tested on: ICR mice
# ASSAY NAME: Acute toxicity experiment of single oral administration in mice
# Assay type: in vivo
# SETUP CONDITIONS: Day 7; male; 1000 mg/Kg single oral dose
# Description: The mice were fasted one day before the experiment. On the day of the experiment, 6 mice (ICR mice, body weight of 19-21 g, three females and three males) were selected in each experiment group. First of all, one female and one male were selected to orally give 1000 mg/Kg, and observed for 5-10 minutes. If there were no obvious side effects, the remaining 4 animals were orally given the same dose, and observed for 10-15 minutes. […] The state was observed and the body weight was recorded daily. […]
Kindly state Daily Body Weight of Tested Male Mice (Mean ± SD) for each of the entries shown.

### Prompt Look up Daily Body Weight of Tested Male Mice (Mean ± SD): COCCN1C(=O)CCC(N2C(=O)c3cccc(O)c3C2=O)C1=O (stereo not shown)
### Response 29.0 ± 0.8 g

### Prompt Can you look up the measured Daily Body Weight of Tested Male Mice (Mean ± SD) of CS(=O)(=O)CCN1C(=O)CCC(N2C(=O)c3cccc(N)c3C2=O)C1=O (stereo not shown) for me?
### Response 28.4 ± 0.8 g

### Prompt Any idea what its Daily Body Weight of Tested Male Mice (Mean ± SD) is? The compound is CCOCCN1C(=O)CCC(N2C(=O)c3cccc(F)c3C2=O)C1=O (stereo not shown)
### Response 29.3 ± 0.7 g

### Prompt Which Daily Body Weight of Tested Male Mice (Mean ± SD) value belongs to CSCCN1C(=O)CCC(N2C(=O)c3cccc(N)c3C2=O)C1=O (stereo not shown) ?
### Response 29.8 ± 1.0 g

### Prompt So what's the measured Daily Body Weight of Tested Male Mice (Mean ± SD) for this one? CNc1cccc2c1C(=O)N(C1CCC(=O)N(CCOC)C1=O)C2=O (stereo not shown)
### Response 29.2 ± 0.8 g

### Prompt Which measured Daily Body Weight of Tested Male Mice (Mean ± SD) value corresponds to CCOCCN1C(=O)CCC(N2C(=O)c3cccc(N)c3C2=O)C1=O (stereo not shown) ?
### Response 27.7 ± 2.2 g

### Prompt Given the entry COCCCN1C(=O)CCC(N2C(=O)c3cccc(N)c3C2=O)C1=O (stereo not shown) , report its measured Daily Body Weight of Tested Male Mice (Mean ± SD).
### Response 28.8 ± 1.4 g

###

# Test system: ICR mice
# ASSAY NAME: Acute toxicity experiment of single oral administration in mice
# Format: in vivo
# SETUP CONDITIONS: Day 2; male; 1000 mg/Kg single oral dose
Task for the reader: assign each of the following compounds its reported Daily Body Weight of Tested Male Mice (Mean ± SD).

### Prompt Tell me reported Daily Body Weight of Tested Male Mice (Mean ± SD) for CSCCN1C(=O)CCC(N2C(=O)c3cccc(N)c3C2=O)C1=O (stereo not drawn) [Example 11] , tested with ICR mice.
### Response 23.7 ± 0.8 g

### Prompt Checklist item: Daily Body Weight of Tested Male Mice (Mean ± SD) tested on ICR mice, entry CCOCCN1C(=O)CCC(N2C(=O)c3cccc(F)c3C2=O)C1=O (stereo not drawn) [Example 20] , value?
### Response 24.0 ± 1.1 g

### Prompt Item COCCCN1C(=O)CCC(N2C(=O)c3cccc(N)c3C2=O)C1=O (stereo not drawn) [Example 26] with ICR mice - Daily Body Weight of Tested Male Mice (Mean ± SD)?
### Response 23.4 ± 0.5 g

### Prompt Entry COCCCCN1C(=O)CCC(N2C(=O)c3cccc(N)c3C2=O)C1=O (stereo not drawn) [Example 22] , system ICR mice: what Daily Body Weight of Tested Male Mice (Mean ± SD) was measured?
### Response 22.9 ± 0.8 g

### Prompt # query: Daily Body Weight of Tested Male Mice (Mean ± SD) | item COCCN1C(=O)CCC(N2C(=O)c3cccc(O)c3C2=O)C1=O (stereo not drawn) [Example 23] | system: ICR mice
### Response 24.6 ± 1.2 g

### Prompt Form: Entry = COCCCN1C(=O)CCC(N2C(=O)c3cccc(F)c3C2=O)C1=O (stereo not drawn) [Example 17] | System = ICR mice | Daily Body Weight of Tested Male Mice (Mean ± SD) = ____
### Response 24.0 ± 0.7 g

### Prompt Query for ICR mice: what Daily Body Weight of Tested Male Mice (Mean ± SD) does the record show for COCCN1C(=O)CCC(N2C(=O)c3cccc(NC(C)=O)c3C2=O)C1=O (stereo not drawn) [Example 1] ?
### Response 23.8 ± 1.4 g

### Prompt Please state recorded Daily Body Weight of Tested Male Mice (Mean ± SD) (tested on ICR mice) of COCCN1C(=O)CCC(N2C(=O)c3c(N)ccc(O)c3C2=O)C1=O (stereo not drawn) [Example 10]
### Response 24.4 ± 0.6 g

### Prompt Quick check: Daily Body Weight of Tested Male Mice (Mean ± SD) on ICR mice, item COCCCN1C(=O)CCC(N2C(=O)c3ccc(N)cc3C2=O)C1=O (stereo not drawn) [Example 18] ?
### Response 23.0 ± 0.7 g
